Data provenance: patent US8404691B2

IC50 for assorted compounds
biological target: Mdm2/p53 binding (Homo sapiens, UniProt Q00987, L33E); construct: Mdm2 amino acids at positions 25 to 108; assay: Mdm2/p53 binding assay (HTRF, His-p53 and GST-Mdm2); conditions: His-p53 (aa 1-132) and GST-Mdm2 (aa 25-108, L33E), 6.25 nM each, 25° C. for 1 hour
Sequence (Q00987 25-108 L33E): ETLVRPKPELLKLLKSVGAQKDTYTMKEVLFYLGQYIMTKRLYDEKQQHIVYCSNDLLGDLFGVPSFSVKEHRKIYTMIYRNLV
Provide the reading as a plain figure in nM.

Recall and state the measured IC50 for CC[C@H]1CNC2(CC2)CN1C(=O)[C@@H]1C[C@@H](F)CN1C(=O)C1=C(C(C)C)N2C(=N[C@@](C)(c3ccc(Cl)cc3)[C@H]2c2ccc(Cl)cc2)S1 [Example 21] .
2.2

Recall and state the measured IC50 for CC(C)C1=C(C(=O)N2C[C@H](F)C[C@H]2C(=O)N2CC3(CC3)NC[C@H]2CO)SC2=N[C@@](C)(c3ccc(Cl)nc3)[C@@H](c3ccc(Cl)c(F)c3)N21 [Example 12] .
5

Recall and state the measured IC50 for CC(C)C1=C(C(=O)N2C[C@H](F)C[C@H]2C(=O)N2CC3(CC3)N(C)C[C@H]2C)SC2=N[C@@](C)(c3ccc(Cl)nc3)[C@@H](c3ccc(Cl)c(F)c3)N21 [Example 17] .
3.3
